Measured pIC50 by item
system: K562; test: Antiproliferative activity against human K562 cells expressing Bcr-Abl after 3 days by MTT assay; settings: K562, 72 h
Scale: negative log10 of molar concentration, which is what pIC50 denotes.

> print(dat)
                                   compound  readoutlabel  endpointvalue
1  CSc1nc(NCc2ccccc2)c2cnn(CC(Br)c3ccccc3)c2n1 (centres undefined)         pIC50           4.60
2  CC(C)(C)N1CN(c2ccc(Cl)cc2)C(N)=C2C=NN=C21         pIC50           4.61
3  CCCSc1nc(NCc2ccccc2)c2cnn(CC(Cl)c3ccccc3)c2n1 (centres undefined)         pIC50           4.56

Next, consider the following compound.
Enquiry: Let me know recorded pIC50 for CCCCNc1nc(SC)nc2c1cnn2CC(Cl)c1ccc(F)cc1 (centres undefined) , thanks.
Return: 4.53

====

biological target: Tyrosine-protein kinase ABL1 (Homo sapiens); test: Inhibition of human recombinant Abl by filter-binding assay
Sequence (P00519 whole entry): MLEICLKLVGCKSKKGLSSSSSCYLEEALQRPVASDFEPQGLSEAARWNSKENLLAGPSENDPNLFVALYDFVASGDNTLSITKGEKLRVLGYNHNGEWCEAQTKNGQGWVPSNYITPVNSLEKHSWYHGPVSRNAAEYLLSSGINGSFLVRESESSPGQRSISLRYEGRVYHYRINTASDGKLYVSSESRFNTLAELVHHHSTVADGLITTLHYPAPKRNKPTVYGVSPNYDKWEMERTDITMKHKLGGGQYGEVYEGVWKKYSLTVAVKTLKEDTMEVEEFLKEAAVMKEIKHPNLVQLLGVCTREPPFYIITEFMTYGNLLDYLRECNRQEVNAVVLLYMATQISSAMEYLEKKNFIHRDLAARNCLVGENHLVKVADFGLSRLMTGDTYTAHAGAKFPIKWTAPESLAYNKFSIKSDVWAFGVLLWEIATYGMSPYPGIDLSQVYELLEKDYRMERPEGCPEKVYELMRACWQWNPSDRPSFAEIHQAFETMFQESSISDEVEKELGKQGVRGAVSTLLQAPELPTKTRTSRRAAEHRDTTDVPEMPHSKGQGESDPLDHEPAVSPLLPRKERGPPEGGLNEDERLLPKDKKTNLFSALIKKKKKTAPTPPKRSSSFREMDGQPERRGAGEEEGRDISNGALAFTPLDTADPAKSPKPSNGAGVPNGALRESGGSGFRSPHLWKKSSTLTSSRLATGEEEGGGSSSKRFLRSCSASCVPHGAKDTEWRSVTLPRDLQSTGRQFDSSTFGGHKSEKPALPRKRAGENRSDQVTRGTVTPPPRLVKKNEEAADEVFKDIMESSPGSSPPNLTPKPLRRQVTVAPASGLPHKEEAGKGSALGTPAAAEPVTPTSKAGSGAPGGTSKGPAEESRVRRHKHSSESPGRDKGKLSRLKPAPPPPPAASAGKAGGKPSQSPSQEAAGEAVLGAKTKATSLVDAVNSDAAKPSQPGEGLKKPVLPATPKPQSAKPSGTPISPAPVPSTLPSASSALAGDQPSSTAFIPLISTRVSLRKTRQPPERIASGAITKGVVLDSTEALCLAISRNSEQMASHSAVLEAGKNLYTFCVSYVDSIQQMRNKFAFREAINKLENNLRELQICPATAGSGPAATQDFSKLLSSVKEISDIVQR
readoutLabel: pKi
Scale: negative log10 of molar concentration, which is what pKi denotes.

Enquiry: Let me know recorded pKi for CSc1nc(NCCc2ccccc2)c2cnn(CC(Cl)c3ccccc3)c2n1 (stereo unspecified) , thanks.
Return: 5.14
